System Under Test: Tyrosine-protein kinase JAK2 (Homo sapiens, UniProt O60674)
Sequence (O60674 whole entry, the tested form may be a part): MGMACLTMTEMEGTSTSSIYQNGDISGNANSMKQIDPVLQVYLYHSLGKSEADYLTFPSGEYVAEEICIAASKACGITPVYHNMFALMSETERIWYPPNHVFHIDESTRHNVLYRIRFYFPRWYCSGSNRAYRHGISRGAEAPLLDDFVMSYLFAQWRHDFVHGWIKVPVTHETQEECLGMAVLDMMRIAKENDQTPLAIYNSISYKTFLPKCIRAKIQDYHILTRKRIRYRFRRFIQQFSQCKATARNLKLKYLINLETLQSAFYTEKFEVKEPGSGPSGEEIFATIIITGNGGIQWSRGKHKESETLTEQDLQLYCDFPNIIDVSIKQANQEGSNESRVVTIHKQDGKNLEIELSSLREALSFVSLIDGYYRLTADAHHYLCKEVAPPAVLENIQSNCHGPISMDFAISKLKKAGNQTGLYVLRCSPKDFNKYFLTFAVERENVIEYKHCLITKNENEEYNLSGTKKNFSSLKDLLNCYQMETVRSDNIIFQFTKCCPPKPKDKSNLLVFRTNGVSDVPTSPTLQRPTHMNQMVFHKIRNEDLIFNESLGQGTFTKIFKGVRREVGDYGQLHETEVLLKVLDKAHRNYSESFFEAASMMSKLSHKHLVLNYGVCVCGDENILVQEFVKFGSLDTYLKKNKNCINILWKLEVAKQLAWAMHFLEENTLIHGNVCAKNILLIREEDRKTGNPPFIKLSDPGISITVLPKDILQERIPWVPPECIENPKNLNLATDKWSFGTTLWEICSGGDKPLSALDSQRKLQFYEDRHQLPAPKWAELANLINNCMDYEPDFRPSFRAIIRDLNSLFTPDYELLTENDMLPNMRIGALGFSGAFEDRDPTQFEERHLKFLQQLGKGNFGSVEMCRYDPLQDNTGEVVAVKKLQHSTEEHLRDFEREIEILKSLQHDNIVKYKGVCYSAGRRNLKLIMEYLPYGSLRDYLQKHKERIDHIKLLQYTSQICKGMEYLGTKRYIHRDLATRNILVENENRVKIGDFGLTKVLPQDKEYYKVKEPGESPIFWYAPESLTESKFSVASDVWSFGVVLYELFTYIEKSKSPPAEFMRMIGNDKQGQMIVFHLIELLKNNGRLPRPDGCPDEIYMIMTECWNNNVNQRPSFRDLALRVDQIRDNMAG
Assay Method Text: Biochemical HTRF Assay Protocol: The ability of compounds to inhibit the activity of JAK1, JAK2, JAK3, and Tyk2 was measured using a recombinant purified GST-tagged catalytic domain for each enzyme (Invitrogen JAK1 #M4290, JAK2 #M4290, JAK3 #M4290, Tyk2 #M4290) in an HTRF format biochemical assay. […] Subsequent reagent additions employed an Agilent Bravo. […] After equilibration, 2 μL of 10×ATP in 1× assay buffer was added to initiate the kinase reaction and the plates were shaken and then incubated at room temperature for 120 minutes. […] After normalization to untreated controls, the percent inhibition of the HTRF signal at each compound concentration was calculated.
Property Name: pIC50
The quantity pIC50 is defined as the negative base-10 logarithm of the molar concentration.

Could you share what pIC50 was measured for CN(C)S(=O)(=O)c1ccc(Nc2nn([C@H]3CCC[C@@H]3C#N)c3cc[nH]c(=O)c23)cc1 , tested on Tyrosine-protein kinase JAK2 (Homo sapiens, UniProt O60674)?
9.52

Could you share what pIC50 was measured for Cc1cc(Nc2nn([C@H]3CCCC[C@@H]3C#N)c3cc[nH]c(=O)c23)ccc1C(=O)N1CCC(F)(F)CC1 , tested on Tyrosine-protein kinase JAK2 (Homo sapiens, UniProt O60674)?
9.43

====

System Under Test: UniProt:P23458
Sequence (P23458 whole entry, the tested form may be a part): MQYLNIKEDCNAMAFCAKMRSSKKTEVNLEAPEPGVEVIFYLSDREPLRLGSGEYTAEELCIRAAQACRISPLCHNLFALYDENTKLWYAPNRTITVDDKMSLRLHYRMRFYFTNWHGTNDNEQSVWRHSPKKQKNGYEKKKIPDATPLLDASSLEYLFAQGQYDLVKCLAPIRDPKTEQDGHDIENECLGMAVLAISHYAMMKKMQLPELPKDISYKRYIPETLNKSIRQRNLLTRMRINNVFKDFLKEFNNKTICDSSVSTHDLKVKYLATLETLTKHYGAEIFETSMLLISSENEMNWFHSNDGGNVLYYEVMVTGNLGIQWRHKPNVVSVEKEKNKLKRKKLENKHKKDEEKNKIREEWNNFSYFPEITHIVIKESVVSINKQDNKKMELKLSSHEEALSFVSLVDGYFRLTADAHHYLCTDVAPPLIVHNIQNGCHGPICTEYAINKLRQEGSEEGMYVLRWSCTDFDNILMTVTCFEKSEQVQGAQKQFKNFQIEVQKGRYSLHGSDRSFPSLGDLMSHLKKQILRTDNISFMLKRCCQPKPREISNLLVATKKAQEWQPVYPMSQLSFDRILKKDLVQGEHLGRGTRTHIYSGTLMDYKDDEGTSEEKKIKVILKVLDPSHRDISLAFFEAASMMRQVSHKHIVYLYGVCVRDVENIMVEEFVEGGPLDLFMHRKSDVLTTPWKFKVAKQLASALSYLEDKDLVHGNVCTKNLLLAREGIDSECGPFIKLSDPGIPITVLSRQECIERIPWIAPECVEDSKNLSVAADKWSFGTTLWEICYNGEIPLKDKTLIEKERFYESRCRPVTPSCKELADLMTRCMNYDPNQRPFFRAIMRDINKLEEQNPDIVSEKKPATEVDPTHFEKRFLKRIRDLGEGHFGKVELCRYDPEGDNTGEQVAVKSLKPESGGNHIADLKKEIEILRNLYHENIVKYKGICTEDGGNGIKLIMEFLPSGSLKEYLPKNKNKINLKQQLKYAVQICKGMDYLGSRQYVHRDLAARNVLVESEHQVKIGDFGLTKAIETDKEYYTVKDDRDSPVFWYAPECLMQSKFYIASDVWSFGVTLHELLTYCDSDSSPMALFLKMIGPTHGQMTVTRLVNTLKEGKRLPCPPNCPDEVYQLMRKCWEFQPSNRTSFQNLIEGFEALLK
Assay Method Text: Biochemical HTRF Assay Protocol: The ability of compounds to inhibit the activity of JAK1, JAK2, JAK3, and Tyk2 was measured using a recombinant purified GST-tagged catalytic domain for each enzyme (Invitrogen JAK1 #M4290, JAK2 #M4290, JAK3 #M4290, Tyk2 #M4290) in an HTRF format biochemical assay. The reactions employed a common peptide substrate, LCB-[…]-NH2 (in-house). The basic assay protocol is as follows: First, 250 nL of diluted compounds in DMSO were dispensed into the wells of a dry 384-well Black plate (Greiner #781076) using a Labcyte Echo 555 acoustic dispenser. Subsequent reagent additions employed an Agilent Bravo. Next, 18 μL of 1.11× enzyme and 1.11× substrate in 1× assay buffer (Invitrogen kinase buffer #PV3189, 2 mM DTT, 0.05% BSA) were added to the wells and shaken and then preincubated for 30 minutes at room temperature to allow compound binding to equilibrate. After equilibration, 2 μL of 10×ATP in 1× assay buffer was added to initiate the kinase reaction and the plates were shaken and then incubated at room temperature for 120 minutes. At the end of the incubation, 20 μL of 2× stop buffer (streptavidin-Dylight 650 (Thermo #84547B/100 mL), Eu-tagged pY20 antibody (Perkin Elmer #AD0067), EDTA, HEPES, and Triton) was added to quench the reaction. Plates were shaken and centrifuged and then incubated 60 minutes at room temperature and then read on a Perkin Elmer Envision (λex=337 nm, λem=665 and 615 nm, TRF delay time=20 μs). HTRF signal=10,000*665 nm reading/615 nm reading. After normalization to untreated controls, the percent inhibition of the HTRF signal at each compound concentration was calculated.
Recorded measurements of pIC50, one per entry
The quantity pIC50 is defined as the negative base-10 logarithm of the molar concentration.

N#C[C@H]1C[C@H](O)CC[C@@H]1n1nc(Nc2ccc(C(F)(F)F)cc2)c2c(=O)[nH]ccc21
9.32
CN(C)S(=O)(=O)c1ccc(Nc2nn([C@H]3CCC[C@@H]3C#N)c3cc[nH]c(=O)c23)cc1
9.96
Cc1cc(Nc2nn([C@H]3CCCC[C@@H]3C#N)c3cc[nH]c(=O)c23)ccc1C(=O)N1CCC(F)(F)CC1
9.49

Attention now turns to another entry.
// returns reported pIC50 for input CS(=O)(=O)c1ccc(Nc2nn([C@@H]3CCC[C@H]3C#N)c3cc[nH]c(=O)c23)cc1
8.33
